Cited source: patent US20160024213A1

- Experimental Target: T1, Recombinant mouse MMR (R&D Systems) (mouse, UniProt Q61830 20-1388)
- T1 construct: Bought from R&D Systems; Immobilised on CM5 chip (SPR) or coated on plates (ELISA); also called mMMR; recombinant mMMR
- T1 sequence: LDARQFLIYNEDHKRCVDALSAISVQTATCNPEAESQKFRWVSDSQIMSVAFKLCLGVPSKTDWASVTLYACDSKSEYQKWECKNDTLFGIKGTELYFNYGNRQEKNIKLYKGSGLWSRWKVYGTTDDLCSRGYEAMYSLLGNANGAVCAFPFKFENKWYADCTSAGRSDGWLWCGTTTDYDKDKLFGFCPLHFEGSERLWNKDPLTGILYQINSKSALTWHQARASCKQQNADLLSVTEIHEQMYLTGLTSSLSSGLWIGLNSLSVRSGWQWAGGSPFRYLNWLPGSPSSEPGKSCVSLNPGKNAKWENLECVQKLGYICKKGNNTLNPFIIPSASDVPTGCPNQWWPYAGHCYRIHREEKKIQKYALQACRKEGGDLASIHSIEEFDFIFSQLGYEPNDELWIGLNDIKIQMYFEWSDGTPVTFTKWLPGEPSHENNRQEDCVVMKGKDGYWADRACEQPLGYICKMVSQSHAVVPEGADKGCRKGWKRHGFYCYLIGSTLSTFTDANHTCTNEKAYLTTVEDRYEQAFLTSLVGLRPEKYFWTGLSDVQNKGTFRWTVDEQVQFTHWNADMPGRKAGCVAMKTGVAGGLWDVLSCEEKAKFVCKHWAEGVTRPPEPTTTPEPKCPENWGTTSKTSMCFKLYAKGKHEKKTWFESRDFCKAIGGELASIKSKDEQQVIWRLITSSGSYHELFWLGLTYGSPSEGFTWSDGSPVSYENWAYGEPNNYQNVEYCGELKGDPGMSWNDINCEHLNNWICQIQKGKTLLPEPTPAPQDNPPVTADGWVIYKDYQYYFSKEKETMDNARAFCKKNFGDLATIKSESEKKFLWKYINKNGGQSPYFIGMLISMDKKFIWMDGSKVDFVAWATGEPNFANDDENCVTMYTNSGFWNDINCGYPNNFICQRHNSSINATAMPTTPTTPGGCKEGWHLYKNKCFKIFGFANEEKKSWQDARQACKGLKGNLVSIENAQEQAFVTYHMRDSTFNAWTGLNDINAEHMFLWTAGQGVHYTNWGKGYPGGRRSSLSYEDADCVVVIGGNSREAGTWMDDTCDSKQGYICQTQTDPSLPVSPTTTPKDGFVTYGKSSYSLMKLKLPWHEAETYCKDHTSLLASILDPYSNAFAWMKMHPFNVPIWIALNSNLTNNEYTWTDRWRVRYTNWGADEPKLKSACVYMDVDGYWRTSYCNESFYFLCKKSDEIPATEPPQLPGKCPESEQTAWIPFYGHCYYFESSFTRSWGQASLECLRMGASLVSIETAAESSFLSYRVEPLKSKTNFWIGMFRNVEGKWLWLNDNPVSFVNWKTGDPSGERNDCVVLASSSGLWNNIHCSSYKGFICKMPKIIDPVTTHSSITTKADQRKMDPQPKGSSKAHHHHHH
- Method: SPR, BIAcore T100, MMR on CM5 chip, Nanobody as analyte
Task for the reader: assign each of the following binders its reported kon.
Give bare numbers, in M⁻¹ s⁻¹.

>  <Binder>
Bivalent anti-MMR Nanobody 1 with llama IgG2 hinge linker (VHH, Bivalent tandem of two clone 1 VHH domains in one chain; also called biv MMR linker 2 g2c; MMR biv g2c) QVQLQESGGGLVQPGGSLRLSCAASGNIFSINAIGWYRQAPGKQRELVATITLSGSTNYADSVKGRFSISRDNAKNTVYLQMNSLKPEDTAVYYCNANTYSDSDVYGYWGQGTQVTVSSAHHSEDPSSKAPKAPMAQVQLQESGGGLVQPGGSLRLSCAASGNIFSINAIGWYRQAPGKQRELVATITLSGSTNYADSVKGRFSISRDNAKNTVYLQMNSLKPEDTAVYYCNANTYSDSDVYGYWGQGTQVTVSSHHHHHH

>  <Value Reported>
1.02e+06

$$$$

Recorded kon (binder Bivalent anti-MMR Nanobody 1 with (Gly4Ser)3 linker (VHH, Bivalent tandem of two clone 1 VHH domains in one chain; also called biv MMR linker 1 GS; MMR biv (Gly4Ser)3) QVQLQESGGGLVQPGGSLRLSCAASGNIFSINAIGWYRQAPGKQRELVATITLSGSTNYADSVKGRFSISRDNAKNTVYLQMNSLKPEDTAVYYCNANTYSDSDVYGYWGQGTQVTVSSGGGGSGGGGSGGGGSQVQLQESGGGLVQPGGSLRLSCAASGNIFSINAIGWYRQAPGKQRELVATITLSGSTNYADSVKGRFSISRDNAKNTVYLQMNSLKPEDTAVYYCNANTYSDSDVYGYWGQGTQVTVSSHHHHHH ): 1.04e+06
